- System: PRKCH
- RECORDED CONDITIONS: concentration: 1 μM, replicates: in singlicate; n = 1;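 also: KINOMEscan kinase panel screen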
MEASURED QUANTITY: %Inh (%)

>>> readout_number("Cl.Oc1cccc(Nc2ccnc3cc(-c4ccncc4)ccc23)c1")
0
>>> readout_number("COc1ccc(Nc2nccc(N3CCC(NC(=O)Nc4cccc(C(C)=O)c4)C3)n2)cc1 (stereo not drawn)")
0
>>> readout_number("COc1cc2c(cc1OCCN1CCN(C)CC1)ncc1c3ccc(C#N)cc3[nH]c21")
0
>>> readout_number("CCc1nc(-c2cccc(C)c2)c(-c2ccnc(NCc3ccccc3)c2)s1")
0
>>> readout_number("CNc1ncnc2[nH]ncc12")
0
>>> readout_number("Fc1ccc(-c2ncn(CCCN3CCOCC3)c2-c2cccnc2)cc1")
0
>>> readout_number("Nc1nc(-c2ccc3c(N)n[nH]c3c2)cc(N2CCCC2)n1")
5
>>> readout_number("COc1cc2c(cc1OC[C@@H](O)CO)ncc1c3ccc(C#N)cc3[nH]c21")
0
>>> readout_number("CN1c2ccc(CNc3ccc(F)cc3)cc2-c2c(cnn2C)S1(=O)=O")
0

###

Form field: %Inh (one value per entry).
- Tested on: TSSK1B
- RECORDED CONDITIONS: concentration: 1 μM, replicates: in singlicate; n = 1
MEASURED QUANTITY: %Inh

>>> result("COc1ccc(Nc2nccc(N3CCC(NC(=O)Nc4cccc(C(C)=O)c4)C3)n2)cc1 (stereo not shown) [GSK1379731]")
"0%"
>>> result("NS(=O)(=O)c1cccc(-c2ccc3nccc(-c4cccc(S(N)(=O)=O)c4)c3c2)c1 [GW867253]")
"0%"
>>> result("Fc1ccc(-c2nn3c(OCC(F)(F)F)cccc3c2-c2ccncc2)cc1 [GW514784]")
"0%"
>>> result("Cl.Cl.Cl.Fc1ccc(-c2ncn(C3CCNCC3)c2-c2ccnc(Nc3ccccc3)n2)cc1 [SB-238039]")
"0%"

###

In this section, each of the compounds is paired with its reported %Inh.
- Test system: NEK9
- RECORDED CONDITIONS: concentration: 1 μM, replicates: in singlicate; n = 1
MEASURED QUANTITY: %Inh (%)

>>> readout_number("COC(=O)Nc1nc2cc(Oc3ccc(NC(=O)Nc4cc(F)ccc4F)cc3)ccc2[nH]1.Cl")
0
>>> readout_number("COc1ccc(COc2cc(-n3cnc4ccccc43)sc2C(N)=O)cc1")
5
>>> readout_number("Fc1ccc(-c2ncn(CCCN3CCOCC3)c2-c2cccnc2)cc1")
0
>>> readout_number("COc1cc2ncn(-c3cc(OCc4sccc4Cl)c(C(N)=O)s3)c2cc1OC")
0
>>> readout_number("Cc1nnc(-c2ccc3occ(-c4ccc(C(C)O)cc4)c3c2)o1 (stereo not shown)")
0
>>> readout_number("Nc1nc(-c2ccc3c(N)n[nH]c3c2)cc(N2CCCC2)n1")
6
>>> readout_number("NCC(NC(=O)c1cc(-c2cn[nH]c2)c(-c2ccnc3[nH]ccc23)s1)c1ccccc1.O=C(O)C(F)(F)F.O=C(O)C(F)(F)F (stereo not shown)")
10
>>> readout_number("Cl.Oc1cccc(Nc2ccnc3cc(-c4ccncc4)ccc23)c1")
0
>>> readout_number("COc1ccc(Nc2ncc(C#N)c(Nc3ccccc3C(N)=O)n2)cc1N1CCN(C)CC1.Cl")
98.2
>>> readout_number("Fc1ccc(-c2ncn(CCCN3CCOCC3)c2-c2ccccn2)cc1")
0
>>> readout_number("c1ccc(-c2n[nH]cc2-c2ccnc3ccccc23)nc1")
58
>>> readout_number("O=C1Cc2cc(Nc3nc(NCc4cccc(S(=O)(=O)C(F)(F)F)c4)ncc3C(F)(F)F)ccc2N1")
0
>>> readout_number("NS(=O)(=O)c1cccc(-c2ccc3ncc(N4CCOCC4)nc3c2)c1")
0
>>> readout_number("CN1c2ccc(NCc3ccc(F)cc3)cc2-c2c(cnn2C)S1(=O)=O")
0
>>> readout_number("CSc1ccc(-c2cc3ncnc(SCC(=O)O)c3s2)cc1")
0
>>> readout_number("O=C(NCCCN1CCOCC1)c1cccc(Nc2nccc(Nc3ccc(Oc4ccccc4)cc3)n2)c1")
28
>>> readout_number("Cn1cc(-c2ccc3c(c2)CCN3C(=O)Cc2ccccc2Cl)c2c(N)ncnc21")
33
>>> readout_number("COc1ccc(Nc2nccc(N3CCC(NC(=O)Nc4cc(C)ccc4C)C3)n2)cc1 (stereo not shown)")
9
>>> readout_number("O=c1cc(N2CCOCC2)nc2n(Cc3cccc4ccccc34)ccn12")
14

###

- Test system: ALK
- RECORDED CONDITIONS: concentration: 1 μM, replicates: in singlicate; n = 1
MEASURED QUANTITY: %Inh (%)

>>> readout_number("CCc1nc(-c2cccc(C)c2)c(-c2ccnc(NCc3ccccc3)c2)s1")
0
>>> readout_number("O=C(NCCCN1CCOCC1)c1cccc(Nc2nccc(Nc3ccc(Oc4ccccc4)cc3)n2)c1")
7
>>> readout_number("COc1ccc(COc2cc(-n3cnc4ccccc43)sc2C(N)=O)cc1")
23
>>> readout_number("COCCNC(=O)c1ccc(-c2cc(C(=O)NC3CC3)cc(F)c2C)cc1")
51
>>> readout_number("COc1ccc(S(=O)(=O)NC2CCN(c3cc(C)nc(Nc4cccc(C#N)c4)n3)CC2)cc1.O=C(O)C(F)(F)F")
5
>>> readout_number("O=c1cc(N2CCOCC2)nc2n(Cc3cccc(F)c3)ccn12")
8
>>> readout_number("Cc1ccc(NC(=O)c2ccnc(N3CCN(C)CC3)c2)cc1-c1ccc(C(=O)NCC2CC2)cc1")
0
>>> readout_number("Cc1cccc(Cn2ccn3c(=O)cc(N4CCOCC4)nc23)c1")
36
>>> readout_number("Cc1cccc(-c2nc(-c3ccc(S(C)(=O)=O)cc3)sc2-c2ccncc2)c1")
5

###

- System: TIE1
- RECORDED CONDITIONS: concentration: 1 μM, replicates: in singlicate; n = 1
%Inh listing for selected compounds.
MEASURED QUANTITY: %Inh (%)

>>> readout_number("COc1cc2ncn(-c3cc(OCc4sccc4Cl)c(C(N)=O)s3)c2cc1OC [GSK448459]")
36
>>> readout_number("Cl.Oc1cccc(Nc2ccnc3cc(-c4ccncc4)ccc23)c1 [GW494601]")
50
>>> readout_number("CSc1ccc(-c2cc3ncnc(SCC(=O)O)c3s2)cc1")
0
>>> readout_number("Fc1ccc(-c2ncn(CCCN3CCOCC3)c2-c2ccccn2)cc1 [SB-211742]")
0
>>> readout_number("COC(=O)Nc1nc2cc(Oc3ccc(NC(=O)Nc4cc(F)ccc4F)cc3)ccc2[nH]1.Cl [GW701424]")
93.2
>>> readout_number("COc1ccc(Nc2nccc(N3CCC(NC(=O)Nc4cccc(C(C)=O)c4)C3)n2)cc1 (stereo not drawn) [GSK1379731]")
0
>>> readout_number("COc1cc2c(cc1OC[C@@H](O)CO)ncc1c3ccc(C#N)cc3[nH]c21")
0
>>> readout_number("Cc1cn2c(=O)cc(N3CCOCC3)nc2n1Cc1cccc(Cl)c1Cl [GSK2334006]")
50
>>> readout_number("COc1cc(Nc2nccc(N3CCC(NC(=O)c4cccc(NC(C)=O)c4)C3)n2)cc(OC)c1OC (stereo not drawn) [GSK1379754]")
61

###

- Tested on: MINK
- Construct: gene MINK1
- RECORDED CONDITIONS: concentration: 1 μM, replicates: in singlicate; n = 1
Recorded %Inh for the following molecules
MEASURED QUANTITY: %Inh (%)

>>> readout_number("CN(C1=C(c2ccccc2)C(=O)NC1=O)c1ccccc1")
23
>>> readout_number("O=C(NCCCN1CCOCC1)c1cccc(Nc2nccc(Nc3ccc(Oc4ccccc4)cc3)n2)c1")
18
>>> readout_number("CSc1ccc(-c2cc3ncnc(SCC(=O)O)c3s2)cc1")
8
>>> readout_number("Cn1cc(-c2ccc3c(c2)CCN3C(=O)Cc2ccccc2Cl)c2c(N)ncnc21")
8
>>> readout_number("COc1ccc(Nc2nccc(N3CCC(NC(=O)Nc4cc(C)ccc4C)C3)n2)cc1 (centres unmarked)")
0

###

- Tested on: p38-beta
- Construct: gene MAPK11
- RECORDED CONDITIONS: concentration: 1 μM, replicates: in singlicate; n = 1
Readings of %Inh for the listed compounds
MEASURED QUANTITY: %Inh (%)

>>> readout_number("CN(C1=C(c2ccccc2)C(=O)NC1=O)c1ccccc1 [SB-334860]")
5
>>> readout_number("COc1ccc(Nc2nccc(N3CCC(NC(=O)Nc4cccc(C(C)=O)c4)C3)n2)cc1 (stereo not drawn) [GSK1379731]")
0
>>> readout_number("CCn1cnc2c(N)ncnc21 [GW345098]")
4

###

- Test system: MST1
- Construct: gene STK4
- RECORDED CONDITIONS: concentration: 1 μM, replicates: in singlicate; n = 1
Each record is given T if its reported %Inh is strictly below 10%. Records at or above 10% are given F.

>>> label("Cc1cccc(-c2nc(Nc3ccc4ncsc4c3)c3ccccc3n2)n1")
"F"
>>> label("CC(C)Oc1ccc2c(-c3ccnc(Nc4ccc(N5CCN(C)CC5)cc4)n3)cnn2n1")
"T"
>>> label("Fc1ccc(-c2ncn(CCCN3CCOCC3)c2-c2ccccn2)cc1")
"T"
>>> label("CC(=O)Nc1ccc(COc2ccc(Nc3ccnc4cc(-c5ccccn5)ccc34)cc2)cc1.Cl")
"T"
>>> label("COc1cc2ncn(-c3cc(OCc4sccc4Cl)c(C(N)=O)s3)c2cc1OC")
"F"
>>> label("CCc1nc(-c2cccc(C)c2)c(-c2ccnc(NCc3ccccc3)c2)s1")
"T"
>>> label("Cl.Oc1cccc(Nc2ccnc3cc(-c4ccncc4)ccc23)c1")
"T"
>>> label("COc1cc(Nc2nccc(N3CCC(NC(=O)c4cccc(NC(C)=O)c4)C3)n2)cc(OC)c1OC (stereo not drawn)")
"F"
>>> label("COc1ccc(S(=O)(=O)NC2CCN(c3cc(C)nc(Nc4cccc(C#N)c4)n3)CC2)cc1.O=C(O)C(F)(F)F")
"T"
>>> label("O=C(NOCC1CC1)c1ccc(F)c(F)c1Nc1ccc(I)cc1Cl")
"T"
>>> label("Cc1ccc(C(=O)NCC(N)=O)cc1-n1c(C)cc(OCc2ccc(F)cc2F)c(Br)c1=O")
"F"
>>> label("O=C(Nc1n[nH]c2cc(-c3cccc(F)c3)ccc12)C1CC1")
"F"
>>> label("C[C@@H](Oc1cc(-n2cnc3ccc(NC(=O)NC(C)(C)C)cc32)sc1C(N)=O)c1ccccc1Cl")
"F"
>>> label("CNc1ncnc2[nH]ncc12")
"F"
>>> label("N#Cc1ccc(-c2cc(-c3c[nH]nc3-c3ccccn3)ccn2)cc1")
"T"
>>> label("N#Cc1c(N2CCOCC2)sc(-c2ccn[nH]2)c1-c1ccc(Cl)cc1")
"F"
>>> label("COC(=O)Nc1nc2cc(Oc3ccc(NC(=O)Nc4cc(F)ccc4F)cc3)ccc2[nH]1.Cl")
"T"
>>> label("COc1ccc(COc2cc(-n3cnc4ccccc43)sc2C(N)=O)cc1")
"T"
